The origin of these recorded values is paper PMC2742391.

subjectOfTest: Torpedo californica acetylcholinesterase (Torpedo californica, UniProt P04058 22-564)
Sequence (P04058 22-564): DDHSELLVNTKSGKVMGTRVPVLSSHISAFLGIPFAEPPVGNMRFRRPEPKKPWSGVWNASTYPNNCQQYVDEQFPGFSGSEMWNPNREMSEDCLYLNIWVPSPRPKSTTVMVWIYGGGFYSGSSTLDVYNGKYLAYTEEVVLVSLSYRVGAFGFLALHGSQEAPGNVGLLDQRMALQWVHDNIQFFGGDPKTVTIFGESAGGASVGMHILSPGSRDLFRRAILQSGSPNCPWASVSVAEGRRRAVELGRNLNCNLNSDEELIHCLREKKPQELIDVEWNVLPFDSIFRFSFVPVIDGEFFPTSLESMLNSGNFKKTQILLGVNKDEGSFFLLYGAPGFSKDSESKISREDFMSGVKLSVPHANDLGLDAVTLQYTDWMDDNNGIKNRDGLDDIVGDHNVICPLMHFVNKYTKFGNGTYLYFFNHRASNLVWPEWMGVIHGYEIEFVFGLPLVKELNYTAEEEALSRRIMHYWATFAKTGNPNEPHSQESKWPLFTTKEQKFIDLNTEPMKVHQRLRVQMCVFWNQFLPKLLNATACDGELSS
measurementProtocol: titration of enzyme activity
measuredMetric: Kd (nM)
Provide only the numeric value, understood in nM.

Task: Which value of Kd has been reported for recombinant wild-type fasciculin-2 (natural protein) TMCYSHTTTSRAILTNCGENSCYRKSRRHPPKMVLGRGCGCPPGDDNLEVKCCTSPDKCNY in the records?
Output: 0.31
